For each entry below, report its z-score value.
assay: qHTS for identification of novel therapeutic agents for treatment of microphthalmiaassociated transcription factor (MiT) renal cell carcinoma (RCC) (AID 1963991); settings: TFE3-RCC viability, CellTiter-Glo, 48 h; measured here: UOK124 Z-AUC; stronger effect = lower value;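 note: curves scaled with 100% = DMSO viability and 0% = empty wells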
Records with an inconclusive call do not appear. Non-standard residues stand in square brackets, D forms with d. Residues, ends and D or L forms follow the SMILES beside them. *: point of attachment. Nva = CCC[C@H](N)C(=O)O; Cbz = O=C(OCc1ccccc1)*
// no unit, no text: just the number

Give me measured z-score, please, for this molecule: C[C@H](CCC(=O)O)[C@H]1CC[C@H]2[C@@H]3[C@H](O)C[C@@H]4C[C@H](O)CC[C@]4(C)[C@@H]3CC[C@]12C 0.277

Kindly indicate its recorded z-score. Item: O=C(c1ccc(F)cc1)N1CCC[C@H](c2nc(-c3ccc(F)cc3)no2)C1 0.757

Consider the molecule C[C@H](O)[C@@H]1C(=O)N2C(C(=O)O)=C(S[C@@H]3CN[C@H](CNS(N)(=O)=O)C3)[C@@H](C)[C@@H]12 and give its recorded z-score. 0.967

Provide z-score value for the following molecule: CCC[C@@H](C=O)NC(=O)[C@H](CC(C)C)NC(=O)[C@H](CC(C)C)NC(=O)OCc1ccccc1 (Cbz-Leu-Leu-[Nva]-aldehyde) -2.77

* * *

test: qHTS of pediatric cancer cell lines to identify multiple opportunities for drug repurposing: Primary screen for BT-37 cells (AID 1347094); conditions: BT-37 viability, CellTiter-Glo luminescence, 48 h; series mostly up to 57.3 µM
Inconclusive results are not listed. Active and inactive are the calls of the source. The call rests on the fitted dose curve; in most records, active means well fitted cell-killing curve with a large enough effect; inconclusive means small, poorly fitted or top-dose-only effect; inactive means flat fitted curve, though single readings scatter.
Valid outcomes are listed here; reply with one: active, inactive

Please indicate how the test categorized Cn1cnc2c(F)c(Nc3ccc(Br)cc3F)c(C(=O)NOCCO)cc21 . inactive

Hello, I am checking results. What call was entered for CCOC(=O)[C@H](CCc1ccccc1)N[C@@H](C)C(=O)N1[C@@H](C(=O)O)C[C@H]2CCC[C@@H]21 ? active

Name the outcome recorded for Cc1noc(-c2ccc(CSCCC(=O)O)cc2)c1NC(=O)OC(C)c1ccccc1Cl (stereo unspecified) in the assay. inactive

Name the outcome recorded for COc1ccc(C[C@@H](C)[C@@H](C)Cc2ccc(OC)c(OC)c2)cc1OC in the assay. active

What did this assay record as the result for C[C@@H](NCc1cc2ccccc2[nH]1)c1cccc2ccccc12 ? inactive

For Cc1cc(O)c2c(c1)C(=O)c1cccc(O)c1C2=O , what call appears in the results of this test? inactive

Recorded call for O=[N+]([O-])c1cn2c(n1)OC[C@@H](OCc1ccc(OC(F)(F)F)cc1)C2 ? inactive

Hi, sorry to bother you, what did the test record for COc1ccc(Nc2nccc(NCCO)n2)cc1 ? inactive

GET /call?item= C#CCC(Cc1cnc2nc(N)nc(N)c2n1)c1ccc(C(=O)N[C@@H](CCC(=O)O)C(=O)O)cc1 (stereo partly specified) returns the recorded outcome of this test. active

Would you mind telling me which call this test gave Cc1ccc([N+](=O)[O-])cc1S(=O)(=O)N(C)N=Cc1cnc2ccc(Br)cn12 ? active

I'd appreciate the recorded outcome for CCCc1nc(C(C)(C)O)c(C(=O)O)n1Cc1ccc(-c2ccccc2-c2nn[nH]n2)cc1 from this test. inactive

Each compound tested received a call. Report the one for CC(=O)OCC(=O)[C@@]12N=C(C)O[C@H]1C[C@H]1[C@@H]3CCC4=CC(=O)C=C[C@]4(C)[C@@H]3[C@@H](O)C[C@@]12C . inactive

Outcome logged for CCOC(=O)N1CCN([N+]([O-])=NOc2ccc([N+](=O)[O-])cc2C#N)CC1 in this assay: active

Each compound tested received a call. Report the one for C[C@](Cc1c[nH]c2ccccc12)(NC(=O)OC1C2CC3CC(C2)CC1C3)C(=O)NC[C@H](NC(=O)CCC(=O)O)c1ccccc1 (stereo partly specified) . inactive

Which outcome did this test record for the compound O=C(C=CC#Cc1cccc(NS(=O)(=O)c2ccccc2)c1)NO ? active

Would you mind telling me which call this test gave CC1(C)O[C@@H]2C[C@H]3[C@@H]4CCC5=CC(=O)C=C[C@]5(C)[C@@H]4[C@@H](O)C[C@]3(C)[C@]2(C(=O)CO)O1 ? inactive

* * *

assay: NS1 protein of Zika virus - qHTS assay to identify small molecule inhibitors in human HEK 293 cells (AID 1347053); details: HEK293 ZIKV MR766 infection, NS1 TR-FRET, 24 h; series mostly up to 46.1 µM; note: nearly all actives have a fitted effect of over 55% in size
Inconclusive results are not listed. Calls of active or inactive are those of the source. Calls follow the shape of the dose curve; as a rule, active = well fitted inhibition curve with a large enough effect; inconclusive = small, poorly fitted or top-dose-only effect; inactive = no such curve, though single readings can be large or run the other way.
Hello, when you answer, please use one of the following outcomes: 1 = active, 0 = inactive

Given Cn1cc(C2=C(c3c4n(c5ccccc35)CCC(CN)C4)C(=O)NC2=O)c2ccccc21 (centres undefined) , state the outcome it received in this test. 1

# outcome recorded in this test, key = Nc1ccn(C2CO[C@H](CO)O2)c(=O)n1 (some centres undefined) 0

Which outcome was assigned to COC1=C(OC)C(=O)C(CC=C(C)CCC=C(C)CCC=C(C)CCC=C(C)CCC=C(C)CCC=C(C)CCC=C(C)CCC=C(C)CCC=C(C)CCC=C(C)C)=C(C)C1=O in this test? 0

Recorded test call requested for Nc1cccc2c1C(=O)N(C1CCC(=O)NC1=O)C2=O (centres undefined) 0

Which outcome was entered for the compound COC(=O)C=CC(=O)OC in this test? 0

What was the test verdict on CC(=O)OCC(=O)[C@@]12N=C(C)O[C@H]1C[C@H]1[C@@H]3CCC4=CC(=O)C=C[C@]4(C)[C@@H]3[C@@H](O)C[C@@]12C ? 0

What classification did Cc1ccc(-n2[nH]c(C)c(N=Nc3cccc(-c4cccc(C(=O)O)c4)c3O)c2=O)cc1C end up with in this test? 0

Record request — test call for Cc1ccccc1C(=O)Nc1ccc(C(=O)N2CCCC(O)c3cc(Cl)ccc32)c(C)c1 (centres undefined) 0

Per the records of this test, what outcome belongs to CCCCCCCCCCCC(CC1OC(=O)C1CCCCCC)OC(=O)C(CC(C)C)NC=O (centres undefined) ? 0

Tell me the recorded outcome of this test for C[C@@H]1C(=O)O[C@H]2CC34[C@H]5C[C@@H](C(C)(C)C)C36[C@H](OC(=O)[C@@H]6O)O[C@@]4(C(=O)O5)[C@]21O (some centres undefined) . 0

Tell me the assay call for O=C(NNC(=O)c1ccc(CNS(=O)(=O)c2ccc(F)c(Cl)c2)cc1)c1ccccc1 please. 0

Look up the recorded call for O=C1NCCc2[nH]c(-c3ccncc3)cc21 in this test. 1

Could you check what this test reported for COc1ccc(Nc2cc(-c3cnc(N)nc3)nc(N3CCOCC3)n2)cn1 ? 1

Hello, I am checking results. What call was entered for COC(=O)[C@@H]1[C@H]2C[C@@H]3c4[nH]c5ccccc5c4CCN3C[C@@H]2CC[C@@H]1O ? 0

Please let me know the test result on file for CC(=O)NCC(=O)N1[C@H]2CC[C@H]1c1cc(Nc3ncc(C(F)(F)F)c(NC4CCC4)n3)ccc12 . 1

Hi team, can someone confirm the assay call for N#Cc1cc(NC(=O)Nc2nnc(-c3ccncc3)s2)ccc1-c1cn[nH]c1 ? 0

Tell me the recorded outcome of this test for N[C@H]1CN(c2c(F)cc3c(=O)c(C(=O)O)cn(C4C[C@@H]4F)c3c2Cl)CC12CC2 (some centres undefined) . 0

For this compound, state the assay outcome: CCNC(=O)Nc1ccc(-c2nc3c(c(N4CCOC[C@H]4C)n2)CCN(C2COC2)C3)cc1 0

State the result this test recorded for COc1ccc(C(C)=O)c(O)c1 . 0

* * *

test: qHTS of pediatric cancer cell lines to identify multiple opportunities for drug repurposing: Primary screen for LAN-5 cells (AID 1347100); details: LAN-5 neuroblastoma viability, CellTiter-Glo luminescence, 48 h; series mostly up to 46 µM
Inconclusive results are not listed. Activity calls are given as the source filed them. Calls come from the whole dose curve; as a rule, active = well fitted cell-killing curve with a large enough effect; inconclusive = small, poorly fitted or top-dose-only effect; inactive = no such curve, though single readings can be large or run the other way.
// one of t = active, f = inactive, no free text

Can you look up the reported call for CC(=O)N1CCN(c2ccc(OCc3nn(C)c(C)c3-c3cccc4c(CCCOc5cccc6ccccc56)c(C(=O)O)n(Cc5cccnc5)c34)cc2)CC1 for me? t

Outcome logged for NC1=N[C@H]2[C@H](CS[C@H]2CCCCC(=O)O)N1 in this assay: f

Please indicate how the test categorized C=C(C)[C@@H]1CC[C@]2(C(=O)O)CC[C@]3(C)[C@H](CC[C@@H]4[C@@]5(C)CC[C@H](O)C(C)(C)[C@@H]5CC[C@]43C)[C@@H]12 . f

Short answer needed: outcome of this test for C[N+]1(C)[C@@H]2C[C@@H](OC(=O)C(O)(c3cccs3)c3cccs3)C[C@H]1[C@@H]1O[C@@H]12 ? f

# outcome recorded in this test, key = COc1ccc(Nc2nccc(NCCO)n2)cc1 f

Hi, sorry to bother you, what did the test record for Cc1coc2c1C(=O)C(=O)c1c-2ccc2c(C)cccc12 ? f

Dear all, I need the recorded test outcome for CCOC(=O)N1CCN([N+]([O-])=NOc2ccc([N+](=O)[O-])cc2[N+](=O)[O-])CC1 , thank you. t

Please indicate how the test categorized CC[C@H]1OC(=O)[C@H](C)[C@@H](O[C@H]2C[C@@](C)(OC)[C@@H](O)[C@H](C)O2)[C@H](C)[C@@H](O[C@@H]2O[C@@H](C)C[C@H](N(C)C)[C@@H]2O)[C@](C)(O)C[C@@H](C)C(=O)[C@H](C)[C@@H](O)[C@]1(C)O . f

Record lookup: outcome of this test for CCC(C(=O)O)C1CCC(C)C(C(C)C(O)C(C)C(=O)C(CC)C2OC3(C=CC(O)[C@@]4(CC[C@](C)(C5CC[C@@](O)(CC)C(C)O5)O4)O3)C(C)CC2C)O1 (some centres not stated) ? t

# lookup: test call for CN[C@H]1[C@@H](O)[C@@H]2O[C@@H]3O[C@H](C)CC(=O)[C@]3(O)O[C@@H]2[C@@H](NC)[C@H]1O t

Record request — test call for COC1=C(OC)C(=O)C(CC=C(C)CCC=C(C)CCC=C(C)CCC=C(C)CCC=C(C)CCC=C(C)CCC=C(C)CCC=C(C)CCC=C(C)CCC=C(C)C)=C(C)C1=O f

Hi, do you know how CCCNC(=O)[C@H]1O[C@H]1C(=O)N[C@H](C(=O)N1CCC[C@@H]1C(=O)OC)C(C)CC (some centres not stated) came out in this test? t

Could you please tell me the result logged for c1cc(CN2CCCNCCNCCCNCC2)ccc1CN1CCCNCCNCCCNCC1 in this assay? f

Hey, what did the test say about CC(C)[C@H](CO)Nc1nc(Nc2cccc(Cl)c2)c2ncn(C(C)C)c2n1 ? t

What classification did CC(=CC(=O)Nc1ccccc1C(=O)O)c1ccc2ccccc2c1 end up with in this test? f

Query: recorded result category for Cn1cc(-c2ccc3ncc(Cc4ccc5ncccc5c4)n3n2)cn1 in this test f

Recorded test outcome, item CCOC(=O)C1=C(C)NC(=S)NC1c1cccc(O)c1 (configuration not stated) t
